experiment: protein batch effect on Rab7 inhibitor curves, late-stage follow-up, mechanism study, biochemical, Rab7 wildtype, bead flow cytometry, two protein sources (AID 720689); conditions: GST-Rab7 beads, Bodipy-FL-GTP binding, protein source 1
reported_metric: pEC50
In textbook form, pEC50 equals minus log to base ten of the concentration in mol/L.

structure_string | assay_value
CC1(C)Cc2c(sc(NC(=S)NC(=O)c3ccc(N=[N+]=[N-])cc3)c2C(=O)O)CO1 | 6.66

From here, focus on the item given below.
Identify measured pEC50 associated with `CC1(C)Cc2c(sc(NC(=S)NC(=O)c3cccc(N=[N+]=[N-])c3)c2C(=O)O)CO1`
5.90

----------
experiment: protein batch effect on Rab7 inhibitor curves, late-stage follow-up, mechanism study, biochemical, Rab7 wildtype, bead flow cytometry, two protein sources (AID 720689); conditions: GST-Rab7 beads, Bodipy-FL-GTP binding, protein source 2
reported_metric: EC50

structure_string | EC50
CC1(C)Cc2c(sc(NC(=S)NC(=O)c3cccc(N=[N+]=[N-])c3)c2C(=O)O)CO1 | 1240 nM

From here, focus on the item given below.
Identify measured EC50 associated with `CC1(C)Cc2c(sc(NC(=S)NC(=O)c3ccc(N=[N+]=[N-])cc3)c2C(=O)O)CO1`
205 nM
